target: SARS-CoV-2 S ectodomain trimer, prefusion-stabilized, 2P variant (Wrapp et al., 2020) (SARS-CoV-2, Wuhan-Hu-1, UniProt P0DTC2, stabilised)

{"binder": "G32Q2 (antibody, V domains shown) VH: EVQLLESGGGLVQPGGSLRLSCAASGFTFSNYAMSWVRQAPGKGLEWVSAISGSGSTTYYADSVKGRFTISRDNSKNTLFLQVNSLRAEDTAVYYCAKGERIIMMVVLTLFDYWGQGTLVTVSS VL: QSVLTQPPSVSAAPGQKVTISCPGSSSNIGKNYVSWYQQLPGTAPKLLIYDNNKRPSGIPDRFTGSKSGTSATLDITGLQTGDEADYYCGTWDSSLSAGWVFGGGTKLTVL", "binding result": "binds"}
{"binder": "C15D10 (antibody, V domains shown) VH: QVQLQQSGPGLVKPSQTLSLTCAISGDSVSSNSAAWNWIRQSPSRGLEWLGRTYYRSKWYNDYAVSVKSRITINPDTSKNQFSLQLNSVTPEDTAVYYCAREQQLVSHDYYYYYGMDVWGQGTTVTVSS VL: QSALTQPASVSGSPGQSITISCTGTSSDVGGYNYVSWYQQHPGKAPKLMIYDVSNRPSGVSNRFSGSKSGNTASLTISGLQAEDEADYYCSSYTSSSSLFGTGTKVTVL", "binding result": "binds"}
{"binder": "C53E6 (antibody, V domains shown) VH: EVQLVESGGGLVKPGGSLKLSCAASGFTFSSYSMNWVRQAPGKGLEWVSSISSSSSYIYYADSVKGRFTISRDNAKNSLYLQMNSLRAEDTAVYYCARASYDFWSGQDHWFDPWGQGTLVTVSS VL: EIVLTQSPATLSLSPGERATLSCRASQSVSSYLAWYQQKPGQAPRLLIYDASNRATGIPAKFSGSGSGTDFTLTISSLEPEDFAVYYCQQRSNWPPITFGQGTRLEIK", "binding result": "binds"}
